Values were extracted from PubChem BioAssay.

# Experiment Description: P. aeruginosa biofilm formation inhibitors, primary screen, strain PAO1, LB-PBS medium, absorbance 600 nm (AID 1176); further: test concentration not given here
# Recorded Conditions: P. aeruginosa PAO1 growth/biofilm, A600, 12 h; higher = more signal

Compound	z-score
O=C1C[C@@](C(=O)NCC(F)(F)F)(c2ccc([N+](=O)[O-])cc2)[C@@H](c2ccc(CO)cc2I)N1CC12CC3CC(CC(C3)C1)C2	1.11
C=C(CCCC)C(=O)CC[C@@H](OC(C)=O)c1ccc(OCCO)cc1	1.07
CCOC(=O)C1=CC[C@@H](c2ccccc2)N(S(=O)(=O)c2ccc(C)cc2)[C@@H]1C#N	-0.088
COc1ccc(C(=O)Nc2ccc(CN3C(=O)[C@@]4(O[C@@H](CC(=O)N(CCO)Cc5ccccc5)[C@H]([Si](C)(C)c5ccc(OC)cc5)[C@H]4C)c4ccccc43)cc2)cc1	0.814
COc1ccc(NN2C(C(O)c3ccccc3)C=CC3C(=O)N(C4CCCCC4)C(=O)C32)cc1 (configuration not stated)	0.505
CC(C)C[C@@H]1NC(=O)[C@@H]2C[C@H](C(=O)NCCCCCNC(=O)CS)[C@H](c3ccc(O)cc3)N2C1=O	2.91
COCCOC(=O)N1C(=O)[C@@]2(c3cc(C#CCC(C(=O)OC)C(=O)OC)ccc31)[C@H](c1ccc(O)cc1)N1[C@H](c3ccccc3)[C@H](c3ccccc3)OC(=O)[C@H]1[C@@H]2C(=O)N1CCc2cc(OC)c(OC)cc2C1	0.008
